Recorded measurements of log10 of EC50, one per entry
- target.system: human GPR119 (Homo sapiens)
- Sequence (Q8TDV5 1-308 limits assumed): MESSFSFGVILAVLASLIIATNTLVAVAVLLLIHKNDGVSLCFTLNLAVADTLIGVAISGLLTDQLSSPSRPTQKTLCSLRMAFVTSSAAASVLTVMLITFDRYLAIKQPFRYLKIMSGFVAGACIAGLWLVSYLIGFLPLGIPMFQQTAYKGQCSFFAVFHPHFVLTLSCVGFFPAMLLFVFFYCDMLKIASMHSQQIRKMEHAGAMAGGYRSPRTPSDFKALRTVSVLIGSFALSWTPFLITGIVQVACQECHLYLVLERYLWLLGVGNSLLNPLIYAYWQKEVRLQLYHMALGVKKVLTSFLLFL
- protocol.summary: Measurement of GPR119 signaling (cAMP assay) in cells stably transfected with human GPR119
- Assay type: cell-based
- conditions.used: table column; cAMP stimulation, human GPR119; read-out: GPR119 Human EC50
Friendly reminder: values = log10 of EC50, unit nM.

Reference set (4 entries):
| structure.as.smiles | log10 of EC50 |
| --- | --- |
| CC(C)c1noc(N2CCC([C@H]3C[C@H]3CCOc3ccc(CC(=O)NC4(C(F)(F)F)CC4)c(F)c3)CC2)n1 | 0.63 |
| CC(C)c1noc(N2CCC([C@H]3C[C@H]3CCOc3ccc(CC(=O)N4CC(C(C)(C)O)C4)c(F)c3)CC2)n1 | 0.91 |
| CC(C)c1noc(N2CCC([C@H]3C[C@H]3CCOc3ccc(CC(=O)N4CC(O)(C(F)(F)F)C4)c(F)c3)CC2)n1 | 0.41 |
| CS(=O)(=O)c1ccc(OCC[C@@H]2C[C@@H]2C2CCN(C(=O)CC3CCC3)CC2)nc1 | 1.11 |

stdin: Endpoint output: log10 of EC50 of CCOC(=O)N1CCC([C@H]2C[C@H]2CCOc2ccc(S(C)(=O)=O)cn2)CC1 . Value?
stdout: 1.34

stdin: # query: log10 of EC50 of entry CC(C)c1noc(N2CCC([C@H]3C[C@H]3CCOc3ccc(CC(=O)NC4CC4)c(F)c3)CC2)n1
stdout: 0.32
